target: T1, Hu HER3 (CD33-[Human HER3, residues 20-640]-TAG) (human, UniProt P21860 20-640); experiment: solution equilibrium titration (SET), IgG
T1 construct: N-terminal CD33 leader is a secretion signal and is left out; also called hu HER3-Tag; HER3-Tag; not shown: C-terminal TAG (e.g. FLAG TAG)
Consider the following binders and their measured Kd readings.
Report the value in pM with no unit label.

Binder | Result units | Data value
MOR12610 (antibody, human IgG1, kappa, V domains shown, tested as IgG) VH: QVQLVESGGGLVQPGGSLRLSCAASGFTFSSYAMSWVRQAPGKGLEWVSGTGPYGGTYYPDSVKGRFTISRDNSKNTLYLQMNSLRAEDTAVYYCARWGDEGFDIWGQGTLVTVSS VL: DIQMTQSPSSLSASVGDRVTITCRASQGISNWLAWYQQKPGKAPKLLIYGASSLQSGVPSRFSGSGSGTDFTLTISSLQPEDFAVYYCQQYSSFPTTFGQGTKVEIKR | pM | 37

Here is another binder to look at.
For this binder ( MOR10701 (antibody, human IgG1, kappa, V domains shown, tested as IgG) VH: EVQLLESGGGLVQPGGSLRLSCAASGFTFSSYAMSWVRQAPGKGLEWVSVTGAVGRSTYYPDSVKGRFTISRDNSKNTLYLQMNSLRAEDTAVYYCARWGDEGFDIWGQGTLVTVSS VL: DIQMTQSPSSLSASVGDRVTITCRASQGISNWLAWYQQKPGKAPKLLIYGASSLQSGVPSRFSGSGSGTDFTLTISSLQPEDFATYYCQQYSSFPTTFGQGTKVEIKR ), measured Kd is 4
